assay: yeast display, Sf9 membrane polyspecificity reagent, FACS + sequencing; frameworks hold sequencing errors

Item sequence	polyreactivity (PSR sort gate)
QVQLVESGGGLVQAGGSLRLSCADSGLIFGYYAMGGYRQAPGKERELVAAITSSGTSTYYADSVKGRFTISRDNAKNTVYLQMNSLKPEDTAVYYCAAQYIGKKRFNYWGQGTQVTVSS	high polyreactivity
QVQLVESGGGLVQAGGSLRLSSAASGFICATYSMGWYRQAPGKERELVASIRKSGGSTYYADSVKGRFTISRDNAKNTVYLQMNSLKPEDTAVYYCAKVYRYYPKYNYWGQGTQVTVSS	high polyreactivity
QVQLVESGGGLVQAGGSLRLSCAASGGIFLFNAMGWYRQAPGKERELVAAITDGGSTYYADSVKGRFTISRDNAKNTVYLQMNSLIPDDTAVYYCNKDSSFWGYYIAQVNERDYWGQGTQVTVSS	low polyreactivity
QVQLVDSGGGLVQAGGSLRLSCAASGITFSGYDMGWYRQAPWKERELVADITISTGSTYYADSVKGRYTISRDNAKNSVYLQMNSLKPEDTAVYYCAADWTGGFYTWYVIPYDYWGQGTQVTVSS	low polyreactivity
QVQLVESGGGLVQAGGSLRLSCAASGRTFSRNAMGWYRQAPGKERELVAAITKGGGSTYYADSVKGRFTISRDNAKNTVYLQMNSLKPEDTAVYYCAAYKPSTRRYDYWGQGTQVTVSS	high polyreactivity
QVQLVESAAGLVQAGASLRLSCAPSGRIYRYYAMGWYRQAPGKDRELVAAISSSGGSTYYADSVKGRFSISRDNAKNTVYLQKNSLKPEDTAVYYCAARKASGRFGYWGQGTQVTVSS	high polyreactivity
QVQLVESGGGLVQAGGSLRLSCAASGITFLANAMGWYRQAPGKERELVATITSRGASTYYADSVKGRFTISRDNAKNTVYLQMNSLKPEDSAVYYCAATVRRRYERYNYWGQGTQVTVSS	high polyreactivity
QVQLVESGGGLVQAGGSLRLFCAASGITSSYYAMLWYRQAPGKERDLVADISQSGGSTYYADSVKGRFTISRDNAKNTVYLQMNSLKPEDTAVYYWAADTYWWSYLYDYWGQGTQVTVSS	high polyreactivity
QVQLVESGGGLVQAGGSLRLSCAASGRIFAQYALGWYRQAPGKERELVAGIDRRGGSTYYADSVKGRFTISRDNAKNTVYLQMNSLKPEDTAVYYCNALREDPLFFVYIGGGYWGQGTQVTVSS	low polyreactivity
QVQLVESGGGLVQAGGSLRLSCAASGSNFANYAMGWYIQAHGKERELVAAISWSGSSTYYADSVKGRFTISRYNAKNTVYLQMNSLKPEDTAVYYCAADYATPTWEYYYWGQGTQVTVSS	low polyreactivity
QVHLVESGGGLVQAGGSLRLSCAASGSTFYRYAMGWYRQAPGKEREFVASISKRGGSTYYADSVKGRFTISRDNAKNTVYLQMISLKPEETAVYYCAADPKFFSGSYLYGYWGQGTQVTVSS	high polyreactivity

---

test: yeast display, Sf9 membrane polyspecificity reagent, FACS + sequencing; frameworks hold sequencing errors
Observed property: polyreactivity (PSR sort gate)

Item sequence	Result value
QVQLVESGGGLVQAGGSLRLSCAATGSIFTAYDMGWYRQAPGKERELVAAINVSAGTTYYADSVKGRFTISRDNAKNTVYLQMNSLKPEDTAVYYCATDRSPTPYTRENIYDYWGQGTQVTVSS	low polyreactivity
QVQLVESGGGLVQAGGSLRLSCAASGRTFTTYAMGWYRQAPGKERELVAAISGSGGSTYYADSVKGRFTISRDNAKNTVYLQMNSLKPEDTAVYYCATAYYYHGGYYYPYDDYWGQGTQVTVSS	low polyreactivity
QVQLVESGGGLVQAGGSLRLSCAASGSTSGRNVMGWYIQAPGKERELVAAISSRGGSTYYADSVKGRFTISRDNAKNTVYLQMNSLKPEDTAVYYCAARYGAYSGYDYWGQGTQVTVSS	high polyreactivity
QVQLVESGGGLDQAGGSLRLSCAASGITFGRNTMGWYRQAPGQERELVAAIDSGGNTYADSVKGRFTISRDNAKNTVYLQMNCLKPEDTAVYYCAVDGGEFSSYGYWGQGTQVTVSS	low polyreactivity
QVQLVESGGGLVQAGGSLRLSCAASGSIFVQYDMGWYRQAPGKERELVAAISWSGGSTYYADSVKGRFTISRDNAKNTVYLQMNTLKPEDTAVYYCAARARLWYFSYGYWGQGTQVTVSS	low polyreactivity
QVQLEESGGGLVQAGGSLRLSCAASGFTFYLYTMGWYRQAPGKERELVAAISRSGDRTYYADSVKGRFSISRDNAKNTVYLQMNSLKPEDTAVYYCAARSYRPTRGDYWGQGTQVTVSS	high polyreactivity
QVQLVESGGVLVQSGGSLRLSCAASGRTFWWYAMGWYRQAPGKERALVAGISSGGSTYYADSVKGRFTISRDNAKYTVYLQMNSLKPEDTAVYYCAKTYWYPWRASLWHEYDYWGQGTQVTVSS	low polyreactivity
QVQLVESGGGLVQAGGSLRLSCDASGFISFGNAMGWNRQAPRKERELVAGISRSGGSTYYADSVKGRFTISRDNAKNTVYLQMISLKPEDTAVYYCATRVAIYPYRFDYWGQGTQVTVSS	high polyreactivity
QVQLVETGGGLVQAGGRLRLSCAASGRIFVYYDMGWSIQAPGKERELVAAITSGGDRTYYADSVKGRFTISRDNAKNTVYLQMNSLKPEDTAVYYCNTYYYPYGYWGQGTQVTVSS	high polyreactivity
QVQHVESGGGLVQAGGSLRLTCAASGFIFVIYAMGWYRTAPGKERELVAAITESGDRTYYADSVKGGFTISRDNAKNTVYLQMNSLKPEDTAVYYCNALLSYGYHAAYGYWGQGTQVTVSS	high polyreactivity
QVQLVESGAGLVQAAGSLRLSCAASGRTFSRNAMGWYRQAPGQERELVARIRSGGSTYYADSVKGRFTISRDNAKNTVYLQMNSLKPDETAVFYLAADRYGYQFDYWGQGTQVTVSS	high polyreactivity
QVQLVESGGGLVQAGGSLRLSCAASGITFSFYAMGWYRQAPGKERELVATIDSGGSTNYADSVKGRFTISRDNAKNTVYLQMNSLKPEDTAVYYCAADGVWYYYDMDYWGQGTQVTVSS	low polyreactivity
QVQLVESGGGLVQAGGSLRLSCAASGRTFETNAMGWYRQAPGKERELVASINWSGGSTYYADSVKGRFTISRDNAKNTVYLQMNILKPEDTAVYYCAADHSYWDWWSYYYWGQGTQVTVSS	low polyreactivity
QVQLVESGGGLVQAGGSLRLSCAASGRTFTFYTMGWYRQAPGKERELVAAITRSGGGTYYADSVKGRFTISRDNAKNTVYLQMNSLKPEDTAVYYCAAYNRNAFHWGQGTQVTVSS	high polyreactivity
QVQLVDSGGGLVQAGGSLRLSCAASGFTFVYYFMGWYRQAPGKERELVAAITRSCRTYYADSVKGRFTISRDNAKNTVYLQMNSLKPEDTAVYYCARGYGYADHAMGYWGQGTQVTVSS	high polyreactivity
QVQLVESGGGLDQAGGSLRLSCAASGSTFYDNAMRWYRQAPGKERELVADISSGGRTNYADSVKGRFTISRDNAKNTVYLQMNCLKPEDTAVYYCAARLYVLRWYPYDYWGQGTQVTVSS	low polyreactivity
QVQLVESGGGLVQAGGSLRLSCAASGSTFSPYARGWYRQAPGKERELVANITISGGSTYYADSVKGRFTISRENAKNTVYFQMNSLKPEDTGVYYSNADSLIRWLFTVVIFDYWGQGTQVTVSS	low polyreactivity
QVQLVESGGGLVQAGGSLRLSCAASGYTFTGYAMGGYRQAPGKERELFATITRGGSTYYADSVKGRFTISRDNAKNTVYLPMNSLKPEDTAVYYCATRVQYYVKSTTQYGYGYWGQGTQVTVSS	low polyreactivity
QVQLVESGGGLVQAGGSDRLSCAASGNTFYPNAMGWYRPAPGKERELVAAITTSGGTTYYADSVKGRFTISRDNAKNTVYLQMNSLKPEDTAVYYCAAYWSRDKYDYWGQGTQVTVSS	low polyreactivity
QVQLVESGGGLVQAGGSLRLSSAASGSIFWHYAMGRYRQAHGKERQLVAGISTRGGITYFADSVKGRFTISRDNAKNTVYLQMNSLKPEDTAVYYCNGVLFFQWFWTYDDYWGQGTQVTVSS	low polyreactivity
QVQVVESGGGLVQAGGSLRLSCAASGRTFNPNVMGWYRQAPGKERELVAAISRGGSTYYADSVKGLFTISRDNAKNTVYLQMNSLKPEDTAVYYCAATHYGHSISNWFDYWGQGTQVTVSS	high polyreactivity

---

assay: yeast display, Sf9 membrane polyspecificity reagent, FACS + sequencing; frameworks hold sequencing errors
Observed property: polyreactivity (PSR sort gate)

Item sequence	Observed property	Result value
QDQLVETGGGLVQAGGSLRLSCSASGSIFAAYTMGWYRQAPGKECELVATISSGGSTYYADSVKGRFTISRDNAKNTVYLQMNSLKPEDTAVYYCAAVAYTYTEYEYWGQGTQVTVSS	polyreactivity (PSR sort gate)	low polyreactivity
QVQLVESGGVLVQAGGSLRLSCAASGFIFKYYAMGWYRQATGKERDLVAAISSSGGRKYYADSVKGRFTISRDNAKNTVYLHMNRLKPEDTAVYYCNKATFVTYYFLGYDYWGQGTQVTVSS	polyreactivity (PSR sort gate)	high polyreactivity
QVQLVESGGGLVQAGGSLRLSCAASGITFEGYALGWYRQAPGKERELVAAIRSSGTSTYYADSVKGRFTISRDNAKNTVYLQMNSLKPEDTAVYYCNRARSSSRYDYWGQGTQVTVSS	polyreactivity (PSR sort gate)	low polyreactivity
QVQLVDSGGGLVQAGGSLRLSCAASGSIFSVNAMGWYRQAPGKERQLVAAISVRGGRTYYADSVKGRFTISRDNAKNTVYLQMNSLIPEDTAVYYCATRISTVGRYDYWGQGTQVTVSS	polyreactivity (PSR sort gate)	high polyreactivity
QVQLVESGGGLVQAGGSLRLSCAASGSTFQFYAMGWYRQAPGKEREFVAAIDFGGAGTYYADSVKGRFTISRDTAKNTVYLQMNSLKPEDTAVYYCNARDGVTSEFDYWGQGTQVTVSS	polyreactivity (PSR sort gate)	low polyreactivity
